System: Brassica rapa subsp. oleifera
Experiment: Herbicidal activity against Brassica campestris L assessed as inhibition of rape root growth at 10 ug/ml
Format: functional
Peptide text beside a SMILES is read from it.
# inhibition at 10 µg/mL annotations
# unit: % | format: bare number

[
  {
    "COMPOUND": "O=C(O)c1cccc(F)c1C(=O)O",
    "STUDY SYSTEM": "Brassica rapa subsp. oleifera",
    "UNIT OF MEASURE": "%",
    "RESULT": 0
  },
  {
    "COMPOUND": "O=C(O)CC(NC(=O)OCc1ccccc1)C(=O)O (centres undefined)",
    "STUDY SYSTEM": "Brassica rapa subsp. oleifera",
    "UNIT OF MEASURE": "%",
    "RESULT": 0
  },
  {
    "COMPOUND": "O=C(O)c1ccc(SSc2ccc(C(=O)O)cn2)nc1",
    "STUDY SYSTEM": "Brassica rapa subsp. oleifera",
    "UNIT OF MEASURE": "%",
    "RESULT": 6
  },
  {
    "COMPOUND": "O=C(O)C(Cc1ccc(O)cc1)NSc1ccccc1[N+](=O)[O-] (centres undefined)",
    "STUDY SYSTEM": "Brassica rapa subsp. oleifera",
    "UNIT OF MEASURE": "%",
    "RESULT": 0
  },
  {
    "COMPOUND": "NC(=O)CCC(NC(=O)OCC1c2ccccc2-c2ccccc21)C(=O)O (centres undefined)",
    "STUDY SYSTEM": "Brassica rapa subsp. oleifera",
    "UNIT OF MEASURE": "%",
    "RESULT": 0
  }
]

Name the recorded inhibition at 10 µg/mL for N[C@@H](Cc1ccc(O)cc1)C(=O)N[C@@H](Cc1ccccc1)C(=O)O (H-Tyr-Phe-OH) .
0

Follow-up entry: NC(=O)CCC(NC(=O)OCc1ccccc1)C(=O)O (centres undefined)
0

Follow-up entry: O=C(O)C(Cc1c[nH]c2ccccc12)NSc1ccccc1[N+](=O)[O-] (centres undefined)
60.5

Follow-up entry: CC(NC(=O)OCC1c2ccccc2-c2ccccc21)C(=O)O (centres undefined)
0

====

Experiment: Inhibition of Arabidopsis thaliana AHAS
MEASURED ATTRIBUTE: pKi
Schema: pKi number; meaning minus log10 of the concentration expressed in molar units.

Name the recorded pKi for O=C1/C(=C2\Nc3ccc(S(=O)(=O)O)cc3C2=O)Nc2ccc(S(=O)(=O)O)cc21 [INDIGOTINDISULFONATE] .
4.38

Follow-up entry: O=C(O)c1ccc(SSc2ccc(C(=O)O)cn2)nc1
4.82

Follow-up entry: O=C(O)C(Cc1c[nH]c2ccccc12)NSc1ccccc1[N+](=O)[O-] (stereo not drawn)
4.04
